MEASURED ON: Tyrosine-protein kinase Mer (Homo sapiens)
CONDITION NOTES: at 1 µM
residual activity values for the compounds below.
Just the number plus its unit, please.

What does the record list as residual activity for `O=Nc1c(-c2c(O)[nH]c3ccccc23)[nH]c2ccccc12` ?
-2%

What does the record list as residual activity for `COc1ccc(C(=O)Nc2sc3c(c2C(N)=O)CCCC3)cc1OC` ?
107%

What does the record list as residual activity for `CC(C)n1cnc2/c(=N/c3cccc(Cl)c3)nc(NCCO)[nH]c21` ?
54%

What does the record list as residual activity for `O=c1cc(-c2cccc3c2Sc2ccccc2S3)oc(N2CCOCC2)c1` ?
99%
